Would you kindly list abundance fitness for each of these variants?
B1: Ankyrin-2, residues 3571 to 3650; numbered along this chain, Q01484 (parent)
chain: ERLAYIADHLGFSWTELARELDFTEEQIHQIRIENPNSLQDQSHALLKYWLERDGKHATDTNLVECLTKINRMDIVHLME

variants of: B1; test: abundance fitness (aPCA) (normalised: wild type 0, dead -1); higher = more abundant; growth selection in yeast, the domain comes from the species named; settings: Homo sapiens
A bare number is all that is needed in reply.

Record ERLAYIADHLGFSWTELARELDFTEEQIHQIRIENPNSLQDQSHALYKYWLERDGKHATDTNLVECLTKINRMDIVHLME . Reported abundance fitness: -0.148

// abundance fitness lookup, variant = ERLAYIADHLGFSWTELARELDFTEEQIHQIRIENPNSLQDQSHALLNYWLERDGKHATDTNLVECLTKINRMDIVHLME , result: 0.028

# abundance fitness of ERLAYIADHLGFSWTELARELDFTEEQIHQIRIENPNSLQDQSHALLKYWLERDGRHATDTNLVECLTKINRMDIVHLME = -0.037

Notebook: ERLAYIADHLGFSWTELARELDFTEEQIHQIRIENPNSVQDQSHALLKYWLERDGKHATDTNLVECLTKINRMDIVHLME , abundance fitness read as -0.043

For ERLAYIADHLGFSWWELARELDFTEEQIHQIRIENPNSLQDQSHALLKYWLERDGKHATDTNLVECLTKINRMDIVHLME the variant record lists abundance fitness as -0.058

get_value(item= ERLAYIADHLGFSWTELARELDFTEEQIHQIRIENPNSLQDQSNALLKYWLERDGKHATDTNLVECLTKINRMDIVHLME , readout=abundance fitness) returns 0.051

Lookup result for ERLAYIADKLGFSWTELARELDFTEEQIHQIRIENPNSLQDQSHALLKYWLERDGKHATDTNLVECLTKINRMDIVHLME ; measured abundance fitness: -0.232
